Below is a list of entries, each paired with its recorded recombinant barcode read abundance (log10) value.
Assay: recombinant barcode read abundance after kanamycin selection (control-corrected) (log10(CPM+1)); higher = more efficient recombination; sequences stand for … in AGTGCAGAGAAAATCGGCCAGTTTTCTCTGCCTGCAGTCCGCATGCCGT…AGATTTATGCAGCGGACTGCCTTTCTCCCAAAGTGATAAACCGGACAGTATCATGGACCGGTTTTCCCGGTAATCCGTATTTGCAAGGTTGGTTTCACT; site = the 11-nt target
Quantity measured: recombinant barcode read abundance (log10)

Seq	Assay result
TCCGCTACTTGGGTTCTAACCTGTTGCCT (site TCCGCTGCTAG)	0.0537
CGCTCATCTTGGGTTCTAACCTGTTGCCT (site CGATCATCTAG)	0.214
ATGCTGTCTTGGGTTCTAACCTGTTGCTA (site GACTACCCTAG)	0.273
TCCTATGCTTGGGTTCTAACCTGTTGCCG (site GAAAGCTCTAC)	0.0567
TCCAGGGCTTGGGTTCTAACCTGTTGCCT (site TCCTGGCCTAG)	0.0786
CGCTCATCTTGGGTTCTAACCTGTTGCCT (site CGTTCATCTAG)	0.211
GCCATCACTTGGGTTCTAACCTGTTGCCT (site GCCATGACTAG)	0.152
AGGTCAACTTGGGTTCTAACCTGTTGCCG (site AGGTCAACTCG)	0.0699
AGTGGAGCTTGGGTTCTAACCTGTTGCCT (site AGGGGATCTAG)	0.0601
GATGGTCCTTGGGTTCTAACCTGTTGCGG (site GATGGTCCTCC)	2.34

---

Below is a list of entries, each paired with its recorded recombinant UMI read abundance (log10) value.
Experiment: recombinant UMI read abundance after kanamycin selection (control-corrected) (log10(CPM+1)); higher = more efficient recombination; extreme values may be limits of the assay; sequences stand for … in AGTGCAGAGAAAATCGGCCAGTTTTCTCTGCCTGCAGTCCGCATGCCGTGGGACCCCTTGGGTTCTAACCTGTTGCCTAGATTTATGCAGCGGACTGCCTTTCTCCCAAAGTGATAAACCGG…AGGTTGGTTTCACT; site = the 11-nt donor
Quantity measured: recombinant UMI read abundance (log10)

Seq	Assay result
TGTGGAACATGGACCGGTTTTCCCGGTAATCCGTATTTGTT (site GGTGGAACTAA)	0
GACTATCCATGGACCGGTTTTCCCGGTAATCCGTATTTGCT (site GAGTATCCTAG)	0
ACCTAGGCATGGACCGGTTTTCCCGGTAATCCGTATTTGGG (site ACCTAGACTCC)	0.00318
ATGGCATCATGGACCGGTTTTCCCGGTAATCCGTATTTGCT (site ATGGCATCTAG)	1.83
CGCGGAACATGGACCGGTTTTCCCGGTAATCCGTATTTGTT (site CGGGGAACTAA)	0.0138
CCCTTCTCATGGACCGGTTTTCCCGGTAATCCGTATTTGGG (site CACTTCTCTCC)	0.00776
CGATCATCATGGACCGGTTTTCCCGGTAATCCGTATTTGCC (site CGATCATCTAG)	0
TAAAGTCCATGGACCGGTTTTCCCGGTAATCCGTATTTGAA (site TAAAGTCCTTA)	0.00424
GAGCCGTCATGGACCGGTTTTCCCGGTAATCCGTATTTGAT (site GAGCCGTCTAT)	1.32
